method notes: qHTS Assay for Lipid Storage Modulators in Drosophila S3 Cells
measurement parameters: BODIPY lipid droplet fluorescence, 18-24 h, cells fed with added oleic acid; series mostly up to 46.1 µM
Screen size: about 320,000 compounds; about 2,100 (0.66%) were called active. Roughly 53% stayed inconclusive and do not appear here. Calls come from the whole dose curve; as a rule, active = well fitted inhibition curve with a large enough effect in the signal ratio, with a control signal flat (not every such curve was filed as active); inconclusive = small, poorly fitted or top-dose-only effect, or effect the other way, or a change in a side signal; inactive = flat fitted curve, though single readings scatter; the % refers to the signal ratio. For the sample, actives were picked, then their nearest neighbours and some compounds at random.
Give one outcome, nothing more. List: active, inactive

Q: What did the test return for CC12CC3(C)CC(C)(C1)CC(C(=O)NCC(=O)O)(C2)C3 ?
A: active

Q: What did the test return for CCNc1nc(NCC)n2c(SCC(=O)O)nnc2n1 ?
A: active

Q: What did the test return for Cc1ccc(NC(=O)Cn2c(=O)n(CCC(=O)NC3CCN(Cc4ccccc4)CC3)c(=O)c3ccccc32)cc1 ?
A: inactive

Q: What did the test return for Cc1cccc(C)c1NC(=O)Cn1c(=O)n(CCCC(=O)NC2CCN(Cc3ccccc3)CC2)c(=O)c2ccccc21 ?
A: active

Q: What did the test return for O=C(CCSc1nc(-c2ccc3c(c2)OCO3)cc(C(F)(F)F)n1)NCc1ccccc1 ?
A: inactive

Q: What did the test return for O=C1CCCC2(O)C1C(c1cccc(Br)c1)NC(=O)N2Cc1ccccc1 (stereo unspecified) ?
A: inactive

Q: What did the test return for O=C(O)CCN=C1CCCc2ccccc2N1 ?
A: inactive

Q: What did the test return for Cc1ccc(CNC(=O)c2ccc(N3CCC4(CC3)CC(c3cccc(Br)c3)=NO4)c(NC(=O)c3ccco3)c2)cc1 ?
A: inactive

Q: What did the test return for O=C(O)c1cccc2c1C(=O)c1ccc(-c3ccc(F)cc3F)cc1S2(=O)=O ?
A: inactive

Q: What did the test return for CC(CNC(=O)CN1C(=O)NC2(CCCCC2C)C1=O)c1ccccc1 (stereo unspecified) ?
A: inactive

Q: What did the test return for Cn1cc(CN2CCCC(CNC(=O)c3ccc4c(c3)OCO4)C2)c2ccccc21 (stereo unspecified) ?
A: inactive

Q: What did the test return for Cc1ccc(C(=O)c2nc(C(=O)NCCO)nc3ccccc23)cc1 ?
A: inactive

Q: What did the test return for CCc1ccc(NC(=O)Cn2c(=O)n(CCC(=O)NC3CCN(Cc4ccccc4)CC3)c(=O)c3ccccc32)cc1 ?
A: inactive

Q: What did the test return for O=C(O)CCCC(=O)Nc1nc(-c2ccc(F)cc2)cs1 ?
A: inactive

Q: What did the test return for COC(=O)CNC(=O)C12CC3(C)CC(C)(CC(C)(C3)C1)C2 ?
A: inactive

Q: What did the test return for CC12CC3(C)CC(C)(C1)CC(C(=O)NC(=S)N1CCCC1)(C2)C3 ?
A: inactive

Q: What did the test return for CCCNC(=O)c1ccc(N2CCC3(CC2)CC(c2ccccc2)=NO3)c(NC(=O)c2ccco2)c1 ?
A: active

Q: What did the test return for COc1ccc(-c2ccc3c(c2)S(=O)(=O)c2cccc(C(=O)O)c2C3=O)cc1OC ?
A: inactive

Q: What did the test return for CN(C(=O)C1CCC(=O)N(Cc2ccccc2F)C1)C1CCOCC1 (stereo unspecified) ?
A: inactive

Q: What did the test return for COc1cccc(-c2ccc3c(c2)S(=O)(=O)c2cccc(C(=O)O)c2C3=O)c1OC ?
A: active

Q: What did the test return for CCNc1nc(NCC)n2c(SCC(=O)c3ccccc3Cl)nnc2n1 ?
A: inactive

* * *

method notes: qHTS Assay for Lipid Storage Modulators in Drosophila S3 Cells;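 for cell number change: cells counted by Cell Tracker Red CMTPX staining in the red channel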
measurement parameters: BODIPY lipid droplet fluorescence, 18-24 h, cells fed with added oleic acid; measured here: cell count max response
From the text: NIH Molecular Libraries Probe Production Centers Network [MLPCN] NIH Chemical Genomics Center [NCGC] […] Triacsin C (Sigma-Aldrich T-4540), an inhibitor of long-chain fatty acyl CoA synthetase that blocks synthesis of triglycerides, was used as a positive control for lipid under-storage. […] Fluorescence was detected by excitation of the fluorophores with a 488-nm laser on an Acumen Explorer (TTP Lab Tech). […] Cells were detected using channel 3 (575-640 nm) with 5-um width and 100-um depth filters. […]
Among all 320,000 compounds or so, about 2,100 (0.66%) were called active. About 53% were inconclusive and are not listed. The sample holds actives, similar compounds and a random draw of the others, so the mix is not that of the screen.
Please go through the items and note down their cell number change.
Respond with the bare value in %.

// recorded cell number change for O=C(NC1(Cc2ccc(O)cc2)CCCCC1)c1ccccc1 : -23.1

// recorded cell number change for Cc1cc(C)nc(N2CCC(C(=O)NC3CC3)CC2)n1 : 11.7

// recorded cell number change for CCN(CC)S(=O)(=O)c1ccc(N2CCOCC2)c(NS(=O)(=O)c2ccc(OC)cc2)c1 : -20.4

// recorded cell number change for O=C(c1ccc(F)cc1)C1CCN(C(=O)Nc2ccc(F)cc2F)CC1 : 14.5

// recorded cell number change for O=C(COC(=O)CCc1c[nH]c2ccccc12)Nc1cc([N+](=O)[O-])ccc1Cl : 17.2

// recorded cell number change for N/C(=N\OC(=O)Cc1ccccc1[N+](=O)[O-])c1cccc(Br)c1 : -2.3

// recorded cell number change for O=c1c(Cl)c(NCc2ccccc2Cl)cnn1C12CC3CC(CC(C3)C1)C2 : -8.24

// recorded cell number change for CCOc1ccccc1-n1c(SCC(=O)N2CCOCC2)nnc1-c1ccccn1 : 1.75

// recorded cell number change for CCOC(=O)N1CCN(C(=O)CSc2ccc(Cl)cc2)CC1 : 4.78

// recorded cell number change for CCC(=O)NC1(Cc2ccc(O)cc2)CCCCC1 : -37.5

// recorded cell number change for CCN(CC)S(=O)(=O)c1ccc(N2CCOCC2)c(NS(=O)(=O)c2ccc(C)c(C)c2)c1 : 16

// recorded cell number change for CCOc1ccc(S(=O)(=O)NC2CCCC2)cc1 : 13.5

// recorded cell number change for COc1ccc(OC)c(C(=O)CSc2nnc(Cc3cccs3)n2C)c1 : -18.3

// recorded cell number change for Cc1ncoc1C(=O)N1CCCC(C(=O)c2cccc3ccccc23)C1 (stereo not given) : 6.72

// recorded cell number change for COc1cc(/C=N/n2c(-c3cc(C)[nH]n3)n[nH]c2=S)ccc1O : 4.27

// recorded cell number change for CCCOc1ccc(C2NC(=O)CCC2[N+](=O)[O-])cc1 (stereo not given) : -7.92

// recorded cell number change for Cc1nnc2n1CCCCC2 : 4.65

// recorded cell number change for CCCCCOC(=O)c1ccccc1C(=O)O : 16.1

// recorded cell number change for CC(=O)N/C(=C/c1ccccc1)C(=O)NCCO : 7.72

// recorded cell number change for O=C(CCc1c[nH]c2ccccc12)OCc1cccc([N+](=O)[O-])c1 : 0.451

// recorded cell number change for O=C(NCCc1c[nH]c2ccccc12)C(=O)NCC(c1ccco1)N1CCN(c2ccccc2)CC1 (stereo not given) : -12.5

// recorded cell number change for Cc1ccc(C(=O)N[C@H](C(=O)OCc2cc(=O)n3c(n2)sc2ccccc23)C(C)C)cc1 : -15.4

// recorded cell number change for O=C(O)CC12CC3CC(C1)CC(n1ncc(NCc4ccc5c(c4)OCO5)c(Cl)c1=O)(C3)C2 : 16.3

// recorded cell number change for CC(C#N)Sc1nnc(-c2ccccc2F)n1C1CC1 (stereo not given) : 7.26

// recorded cell number change for COc1ccc(CN2CCOCCOCCN(Cc3ccc(OC)cc3)CCOCCOCC2)cc1 : 16

// recorded cell number change for CC(C)[C@H](NC(=O)NC1CCN(Cc2ccccc2)CC1)C(=O)O : 11.2

// recorded cell number change for CC(=O)c1cc(-c2ccccc2)n(CC(=O)NC2CCCC2)c1C : -1.74

// recorded cell number change for N/C(Cc1ccc([N+](=O)[O-])cc1)=N\OC(=O)c1ccc(Br)cc1 : 0.393

// recorded cell number change for COc1cc(C(=O)Nc2cc(-c3cn4cccnc4n3)ccc2C)cc(OC)c1OC : -3.97

// recorded cell number change for O=c1c(Cl)c(NCc2ccco2)cnn1C12CC3CC(CC(C3)C1)C2 : -8.21

// recorded cell number change for CCOc1ccc(S(=O)(=O)N/N=C(\C)C2CCCCC2)cc1 : -18.4

// recorded cell number change for Cc1cc(C)nc(N2CCCC(C(=O)NC3CC3)C2)n1 (stereo not given) : 0.42

// recorded cell number change for CC1CCN(C2(O)C(=O)Nc3ccc([N+](=O)[O-])cc32)CC1 (stereo not given) : -1.63

// recorded cell number change for CCCSc1nnc(NC(=O)CSc2nc3[nH]c(=O)cc(O)c3s2)s1 : -1.41

// recorded cell number change for COC(=O)c1ccc(COC(=O)c2cnccn2)cc1 : 9.29

// recorded cell number change for CN1C(=O)C(=C2CCCCCC2)SC1=S : -2.61

// recorded cell number change for CCc1ccc(C(=O)COC(=O)CNC(=O)CNC(=O)Cc2ccccc2)cc1 : -4.14

// recorded cell number change for CCOc1ccccc1CNCc1ccc(C(=O)O)cc1 : 10.5

// recorded cell number change for O=C(Nc1ccccn1)c1sc2cccc(F)c2c1Cl : 9.28

// recorded cell number change for COc1ccc(/C=N/NC(=O)c2nc(-c3ccccc3)cc(-c3ccccc3)n2)cc1 : -21.2

// recorded cell number change for O=C(COC(=O)CCc1c[nH]c2ccccc12)Nc1ccc([N+](=O)[O-])cc1 : -0.284

// recorded cell number change for COc1ccc2c(c1)C1=NN(/C(C)=C\C(C)=O)C(c3ccccc3)C1CC2 (stereo not given) : -20.1

// recorded cell number change for O=C(OCc1ccc(Cl)cc1)c1cnccn1 : 23.8

// recorded cell number change for COc1cccc(/C=N/NC(=O)c2nc(-c3ccccc3)cc(-c3ccccc3)n2)c1O : -7.98

// recorded cell number change for CCOc1ccc(CC(C(=O)NN)C(=O)NN)cc1CN(C)C : -6.71
